Tested on: CP256
Assay: qHTS profiling for inhibitors of Plasmodium falciparum proliferation (AID 504749);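 also: 0% = DMSO vehicle and full inhibition = artemisinin control; nearly all actives have a fitted effect of over 60% in size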
Details: P. falciparum in erythrocytes, SYBR Green DNA, 72 h; series mostly up to 28.7 µM
Results filed as inconclusive are left out. Activity calls are given as the source filed them. Calls follow the shape of the dose curve; as a rule, active = well fitted inhibition curve with a large enough effect; inconclusive = small, poorly fitted or top-dose-only effect; inactive = flat fitted curve, though single readings scatter.
Lab note: assign the record to one of true (1) = active, false (0) = inactive

Worked examples follow.
Cc1cc(O)cc2c1O[C@](C)(CCC[C@H](C)CCC[C@H](C)CCCC(C)C)CC2
false (0)
O=C(O)[C@@H]1CSCN1
false (0)
CC(=O)Oc1ccc(C2(c3ccc(OC(C)=O)cc3)C(=O)Nc3ccccc32)cc1
false (0)

## Task Dear colleague, could you share the recorded outcome for NC(CSCC(=O)O)C(=O)O (centres undefined) when you have a moment?
## Result false (0)

## Task Returns: the outcome recorded for "COc1ccccc1O" in this assay.
## Result false (0)

## Task Status in this test for "COc1ccc(S(=O)(=O)Nc2nnc(CC(C)C)s2)cc1" ?
## Result false (0)

## Task Answer briefly: the call reported for "O=c1[nH]c(=O)c2[nH]c(=O)[nH]c2[nH]1" in this assay.
## Result false (0)

## Task Answer briefly: the call reported for "COC(=O)C1=C(C)NC(C)=C(C(=O)OC)C1c1ccccc1[N+](=O)[O-]" in this assay.
## Result false (0)

====

Tested on: HaCat
Assay: Cytotoxic Profiling of Annotated Libraries Using Quantitative High-Throughput Screening (AID 1296008); also: % is scaled to controls: 0 for no effect and ±100 for the full control effect; nearly all actives have a fitted effect of over 60% in size
Details: Five cell lines viability, CellTiter-Glo ATP luminescence, 48-72 h; active compounds read low
Inconclusive results are not listed. Calls of active or inactive are those of the source. The call rests on the fitted dose curve; in most records, active means well fitted inhibition curve with a large enough effect; inconclusive means small, poorly fitted or top-dose-only effect; inactive means flat fitted curve, though single readings scatter.
reported-property: max response

Observe how each entry below is paired with its result.
COc1ccc2[nH]c(S(=O)Cc3ncc(C)c(OC)c3C)nc2n1 (stereo not given)
-5.32% (inactive)
Nc1ccc(S(=O)(=O)Nc2ccc(Cl)nn2)cc1
0.946% (inactive)
CC(C)(C)C(=O)C(Oc1ccc(Cl)cc1)n1ccnc1 (stereo not given)
-9.75% (inactive)
CCN(CC)CCNC(=O)c1cc(Cl)c(N)cc1OC
1.24% (inactive)
CN(C)CCCN1c2ccccc2CCc2ccccc21
-28.4% (inactive)
Cc1ccc(C(C)C)cc2c(C)ccc1-2
-2.06% (inactive)

// for each molecule in input: emit max response
1. c1ccc2c(CC3=NCCN3)cccc2c1
2. CC(CN1c2ccccc2Sc2ccccc21)N(C)C (stereo not given)
3. OCc1cc(C(O)CNCCCCCCOCCCCc2ccccc2)ccc1O (stereo not given)
4. CCn1cc(C(=O)O)c(=O)c2cnc(N3CCNCC3)nc21
5. CS(=O)(=O)c1ccc([C@@H](O)[C@@H](CF)NC(=O)C(Cl)Cl)cc1
6. CCOC(=O)[C@H](CCc1ccccc1)N[C@@H](C)C(=O)N1C(=O)N(C)C[C@H]1C(=O)O
7. CCCCN(CCCC)CC(O)c1cc(Cl)cc2c1-c1ccc(Cl)cc1/C2=C/c1ccc(Cl)cc1 (stereo not given)
8. N[C@@H](CSCCCO)C(=O)O

## Result
["-1.06% (inactive)", "3.18% (inactive)", "2.23% (inactive)", "-4.47% (inactive)", "3.4% (inactive)", "0.859% (inactive)", "-7.84% (inactive)", "2.87% (inactive)"]

Each molecule below has a recorded value; state its max response.
1. NC(=O)N/N=C/c1ccc([N+](=O)[O-])o1
2. O=c1cc(CO)occ1O
3. CC(=O)Oc1ccc(C2(c3ccc(OC(C)=O)cc3)C(=O)Nc3ccccc32)cc1
4. C[C@]12CC[C@@H]3c4ccc(O)cc4CC[C@H]3[C@@H]1CCC2=O
5. OCC(O)CN1CCN(c2ccccc2)CC1 (stereo not given)
6. Cc1cccc(Nc2cc(Cl)nc(SCC(=O)O)n2)c1C

## Result
1. -0.194% (inactive)
2. 2.79% (inactive)
3. -16.5% (inactive)
4. 3.4% (inactive)
5. -30% (inactive)
6. 1.74% (inactive)

====

Biological target: Tumor susceptibility gene 101 protein (Homo sapiens)
Test: qHTS Validation Assay for Iinhibitors of HIV-1 Budding by Blocking the Interaction of PTAP/TSG101 (AID 485342); also: 0% is about no effect
Conditions: TSG101-PTAP binding, fluorescence polarization, 4-point titration; series mostly up to 115 µM
Calls of active or inactive are those of the source. Calls come from the whole dose curve.
reported-property: outcome

These recorded examples may help you get a feel for the data.
N=c1c[n+](N2CCOCC2)[n-]o1
inactive
CSc1ccc2c(c1)C(N1CCN(C)CC1)Cc1ccccc1S2 (stereo not given)
inactive
C[C@]12CC[C@@H]3c4ccc(O)cc4CC[C@H]3[C@@H]1CCC2=O
inactive
Nc1ncnc2c1ncn2[C@@H]1O[C@H](CO)[C@@H](O)[C@H]1O
inactive
CCN(CC)CCOC(=O)C1(C2CCCCC2)CCCCC1
inactive

Value sought for every listed molecule: outcome.
1. CC[C@H]1CN2CCc3cc(OC)c(OC)cc3[C@@H]2C[C@@H]1C[C@H]1NCCc2cc(OC)c(OC)cc21
2. CN(C)CCOC(C)(c1ccccc1)c1ccccn1 (stereo not given)
3. CCN(CC)CCCC(C)Nc1c2ccc(Cl)cc2nc2ccc(OC)cc12 (stereo not given)
4. CC(C)(C)c1onc(OCP(=O)(O)O)c1CC(N)C(=O)O (stereo not given)

## Result
1. inactive
2. inactive
3. inactive
4. inactive

Dear colleague, could you please provide outcome for the molecules listed below?
1. CC(C)(C(=O)O)c1ccc(C(O)CCCN2CCC(C(O)(c3ccccc3)c3ccccc3)CC2)cc1 (stereo not given)
2. CC(CN1c2ccccc2Sc2ccccc21)N(C)C (stereo not given)
3. CCN(CC)CCNC(=O)c1cc(Cl)c(N)cc1OC
4. CC1=C(/C=C/C(C)=C/C=C/C(C)=C/C(=O)O)C(C)(C)CCC1

## Result
1. inactive
2. inactive
3. inactive
4. inactive

Batch of 2 molecules: report outcome for each.
1. CNCCCC1c2ccccc2C=Cc2ccccc21
2. CC(CN(C)C)CN1c2ccccc2CCc2ccccc21 (stereo not given)

## Result
1. inactive
2. inactive

====

Assay: Drug repurposing screens with cells derived from glioblastoma tumor samples (AID 1345199); also: nearly all actives have a fitted effect of over 40% in size; also: potency is read from the fitted curve at half-maximal effect
Settings: GBM patient neurospheres viability, ATP luminescence, 48 h; tumour line D
Inconclusive results are not listed. The source made the active and inactive calls. Calls come from the whole dose curve; as a rule, active = well fitted inhibition curve with a large enough effect; inconclusive = small, poorly fitted or top-dose-only effect; inactive = flat fitted curve, though single readings scatter.
reported-property: Potency

The following molecules have reported results that may help.
CC(CN1c2ccccc2Sc2ccccc21)N(C)C (centres undefined)
22.4 µM (active)
CCN(CC)CCNC(=O)c1c(C)[nH]c(/C=C2\C(=O)Nc3ccc(F)cc32)c1C
28.2 µM (active)
CC(C(O)c1ccc(O)cc1)N1CCC(Cc2ccccc2)CC1 (centres undefined)
12.6 µM (active)
Cc1c(O)cccc1C(=O)N[C@@H](CSc1ccccc1)[C@H](O)CN1C[C@H]2CCCC[C@H]2C[C@H]1C(=O)NC(C)(C)C
20 µM (active)
CN(C)CCCN1c2ccccc2CCc2ccccc21
12.6 µM (active)
OCc1cc(C(O)CNCCCCCCOCCCCc2ccccc2)ccc1O (centres undefined)
20 µM (active)
OCCN1CCN(CCCN2c3ccccc3Sc3ccc(Cl)cc32)CC1
10 µM (active)
CSc1ccc2c(c1)N(CCC1CCCCN1C)c1ccccc1S2 (centres undefined)
5.01 µM (active)

Now turn to the next molecule.
Field Potency (entry "O=Cc1ccccc1C=O" ) reads 35.5 µM (active)

====

System: CP211
Assay: qHTS profiling for inhibitors of Plasmodium falciparum proliferation (AID 504749);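 also: 0% = DMSO vehicle and full inhibition = artemisinin control; nearly all actives have a fitted effect of over 60% in size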
Settings: P. falciparum in erythrocytes, SYBR Green DNA, 72 h; series mostly up to 28.7 µM
Inconclusive results are not listed. The source made the active and inactive calls. Calls come from the whole dose curve; as a rule, active = well fitted inhibition curve with a large enough effect; inconclusive = small, poorly fitted or top-dose-only effect; inactive = flat fitted curve, though single readings scatter.
reported-property: outcome

O=C1c2c(O)cccc2Cc2cccc(O)c21
inactive
C[C@]12C[C@H](O)[C@H]3[C@@H](CCC4=CC(=O)CC[C@@]43C)[C@@H]1CC[C@@H]2C(=O)CO
inactive
CCC(=O)Nc1ccc(O)cc1
inactive
CC(CN1c2ccccc2Sc2ccccc21)N(C)C (configuration not stated)
inactive
NC(=O)N/N=C/c1ccc([N+](=O)[O-])o1
inactive

I need outcome for every entry listed below, if you could help.
1. COc1cc(C(=O)N2CCOCC2)cc(OC)c1OC
2. Nc1ccc(S(=O)(=O)Nc2ccccc2)cc1

## Result
["inactive", "inactive"]

====

Experiment: Drug repurposing screens with cells derived from glioblastoma tumor samples (AID 1345199); also: nearly all actives have a fitted effect of over 40% in size; as to activity, negative = cell killing: % is scaled to controls: 0 for no effect and ±100 for the full control effect
Details: GBM patient neurospheres viability, ATP luminescence, 48 h; at 45.9 µM (top of the series); tumour line B
Experimental: CD133+ cells were isolated from GBM patient biopsies and cultured as neurospheres. Neurospheres from four patients were used to screen the NCATS pharmaceutical collection (NPC) library of approved drugs and bioactive compounds. […] The neurospheres were incubated with drugs for 48 hours in 1536-well format, then assayed with an ATP content cell viability assay. […]
Results filed as inconclusive are left out.
Please use y for activity, negative = cell killing under -10% and n for everything else, ties included.

NC(=O)c1ncn([C@@H]2O[C@H](CO)[C@@H](O)[C@H]2O)c1N
n

## Task Quick check: activity, negative = cell killing of "O=C(O)COc1nn(Cc2ccccc2)c2ccccc12" under -10%?
## Result n

## Task # check: activity, negative = cell killing < -10% for OCC(O)CN1CCN(c2ccccc2)CC1 (stereo unspecified)
## Result y

## Task Does O=C(O)CC(O)C(=O)O (stereo unspecified) have activity, negative = cell killing strictly under -10%?
## Result y

## Task Does this molecule meet the criterion activity, negative = cell killing < -10%? CCCCCCCCCCCCCCCCCCOCC(O)CO (stereo unspecified)
## Result n

## Task Dear reviewer, please state whether COCCOC(=O)C1=C(C)NC(C)=C(C(=O)OC/C=C/c2ccccc2)C1c1cccc([N+](=O)[O-])c1 (stereo unspecified) has activity, negative = cell killing strictly beneath -10%.
## Result n
